- Tested on: OVCAR8
- PROCEDURE_DETAILS: drug sensitivity score (DSS2) on cancer cell count; higher = more sensitive; extreme values may be limits of the assay
- CONDITION: co-cultured fibroblast: WI38; 72 h
Provide the recorded drug sensitivity score for the entries that follow.
Form entry: value (DSS) — number only.

Reported drug sensitivity score for "CNS(=O)(=O)Nc1nccc(Cc2c(C)c3ccc(Oc4ncccn4)cc3oc2=O)c1F" : what is it?
5.7

Likewise for "NC1(c2ccc(-c3nc4ccn5c(=O)[nH]nc5c4cc3-c3ccccc3)cc2)CCC1" ?
0

Likewise for "COc1ccc(-c2nc(N3CCOCC3)c3sc(CN(C)c4ncc(C(=O)NO)cn4)cc3n2)cn1" ?
41.7

Likewise for "OC[C@H]1O[C@@H](n2cnc3c2N=CNC[C@H]3O)C[C@@H]1O" ?
2.8

Likewise for "CCS(=O)(=O)N1CCN(c2ccc(Nc3ncc(C(N)=O)c(NC4CC4)n3)cc2)CC1" ?
4.3

Likewise for "CC1(C)CC[C@]2(NC(=O)C(C)(F)F)CC[C@]3(C)[C@H](C(=O)C=C4[C@@]5(C)C=C(C#N)C(=O)C(C)(C)[C@@H]5CC[C@]43C)[C@@H]2C1" ?
20

Likewise for "CCc1cnn2c(NCc3ccc[n+]([O-])c3)cc(N3CCCC[C@H]3CCO)nc12" ?
17.1

Likewise for "CC(C)(C#N)c1cc(Cn2cncn2)cc(C(C)(C)C#N)c1" ?
0

Where do these numbers come from? They come from the supplement of paper PMC12420376.
